# tgt: Rap guanine nucleotide exchange factor 3 (Homo sapiens)
# experiment.description: Counterscreen qHTS for agonist of cAMP-regulated guanine nucleotide exchange factor 3 (EPAC1) (AID 1645889); further: % of control where 0% means no effect; nearly all actives have a fitted effect of over 40% in size
# conditions: EPAC1 Rap1B-BODIPY-GDP exchange, fluorescence; series mostly up to 154 µM
# Excerpt: Assay Provider (PI): Xiaodong Cheng Ph.D. The University of Texas Medical Branch, […], TX MLPCN Grant: NS066510 In multi-cellular eukaryotic organisms, the effects of cAMP are transduced by two ubiquitously-expressed intracellular cAMP receptors, the classic protein kinase A/cAMP-dependent protein kinase (PKA/cAPK) and the more recently discovered exchange protein directly activated by cAMP/cAMP-regulated guanine nucleotide exchange factor (EPAC/cAMP-GEF). […]
Records with an inconclusive call do not appear. Active and inactive are the calls of the source. The call rests on the fitted dose curve; in most records, active means well fitted activation curve with a large enough effect; inconclusive means small, poorly fitted or top-dose-only effect, or another doubt; inactive means no such curve, though single readings can be large or run the other way.
measured.parameter: activation

Cc1ccc(/C=C(\CCC(=O)O)c2nc3ccccc3s2)cc1[N+](=O)[O-] : 0.0676% [at 30.8 µM] (inactive)
CCOc1ccc(S(=O)(=O)Nc2cc(NS(=O)(=O)c3ccc(OCC)cc3)cc(C(=O)O)c2)cc1 : inactive
Nc1ccc(C(=O)N/N=C/c2cn(Cc3ccccc3F)c3ccccc23)cc1 : 39.9% [at 30.8 µM] (inactive)
CCOc1ccccc1NC(=O)N1CCC(N2CCN(Cc3ccccc3)C(=O)C2=O)CC1 : inactive
O=C(O)c1[nH]c2ccccc2c1C(c1cccc(O)c1)c1c(C(=O)O)[nH]c2ccccc12 : inactive
CC(C)c1ccc(NC(=O)COC(=O)C2=COCCO2)cc1 : 17.9% [at 30.8 µM] (inactive)

Dear colleague, please send me the reported activation for "Cc1ccc(S(=O)(=O)N2[C@@H](c3cccc(Cl)c3)C(C(=O)O)=CC[C@H]2c2ccc(Cl)c(Cl)c2)cc1" when you can.
inactive

Quote activation reported for "COc1cnc(N(C)C)nc1Sc1cccc(Cl)c1" please.
-4.79% [at 30.8 µM] (inactive)

Please list activation recorded for the compound O=C(CSc1nc2ccsc2c(=O)n1CC1CCC(C(=O)O)CC1)c1ccc(Cl)cc1 (configuration not stated)
inactive

Assign activation to the following record: "CCN(CC(=O)NCc1cccs1)C(=O)c1ccc(S(=O)(=O)Nc2ccccc2)cc1"
inactive

Give the value of activation reported for the following: Cc1ccc2oc(=O)c3cnn(CC(=O)NC4CCC(C)CC4)c3c2c1 (configuration not stated)
inactive

Given COc1ccccc1C1CC(=O)Oc2cc(C)c(Cl)cc21 (configuration not stated) , respond with its activation.
inactive

Tell me measured activation for CCC(C(=O)c1ccc2ncccc2c1)c1ccccc1 (configuration not stated) please.
inactive

Report activation, nothing else, for this compound: "CN(CC(=O)Nc1cccc(F)c1)C(=O)c1cccc(-n2cccc2)c1"
14.1% [at 30.8 µM] (inactive)

Check the records and state activation for "O=C(C(=Cc1ccccc1)c1ccccc1)c1ccccc1"
inactive

* * *

# tgt: Rap guanine nucleotide exchange factor 4 (Homo sapiens) (UniProt Q8WZA2)
# Sequence (Q8WZA2 whole entry, looked up): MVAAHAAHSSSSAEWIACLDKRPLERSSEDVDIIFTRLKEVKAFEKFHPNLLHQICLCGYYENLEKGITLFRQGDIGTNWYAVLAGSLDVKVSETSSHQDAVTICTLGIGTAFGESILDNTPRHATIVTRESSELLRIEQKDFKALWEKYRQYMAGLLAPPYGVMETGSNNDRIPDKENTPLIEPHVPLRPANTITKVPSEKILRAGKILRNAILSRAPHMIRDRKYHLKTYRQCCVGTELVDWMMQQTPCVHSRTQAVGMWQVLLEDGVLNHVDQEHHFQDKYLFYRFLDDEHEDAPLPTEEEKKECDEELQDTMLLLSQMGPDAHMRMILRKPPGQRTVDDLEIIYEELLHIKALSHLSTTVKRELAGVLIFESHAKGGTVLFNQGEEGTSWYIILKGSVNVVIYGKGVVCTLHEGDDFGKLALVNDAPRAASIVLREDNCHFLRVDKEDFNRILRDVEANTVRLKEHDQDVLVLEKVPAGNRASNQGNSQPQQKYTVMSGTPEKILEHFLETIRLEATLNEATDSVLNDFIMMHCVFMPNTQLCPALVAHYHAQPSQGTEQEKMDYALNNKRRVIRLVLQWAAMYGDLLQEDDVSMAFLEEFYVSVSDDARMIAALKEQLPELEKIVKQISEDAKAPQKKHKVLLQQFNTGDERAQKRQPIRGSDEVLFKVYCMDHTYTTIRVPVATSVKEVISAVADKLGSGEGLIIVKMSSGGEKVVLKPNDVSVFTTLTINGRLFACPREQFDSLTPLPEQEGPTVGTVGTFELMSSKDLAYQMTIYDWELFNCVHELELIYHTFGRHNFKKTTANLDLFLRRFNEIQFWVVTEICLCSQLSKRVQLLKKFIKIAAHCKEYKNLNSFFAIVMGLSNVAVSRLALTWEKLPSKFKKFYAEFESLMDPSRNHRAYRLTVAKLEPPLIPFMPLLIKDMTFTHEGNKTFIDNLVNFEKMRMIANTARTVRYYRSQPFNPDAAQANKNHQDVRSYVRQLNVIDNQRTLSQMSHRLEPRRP
# experiment.description: Confirmatory qHTS for agonist of cAMP-regulated guanine nucleotide exchange factor 4 (EPAC2) (AID 1645884);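 further: nucleotide exchange releases bodipy-GDP from Rap1 and this lowers its fluorescence; on the % scale 0 is the no-effect control and ±100 the full control effect; nearly all actives have a fitted effect of over 65% in size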
# conditions: EPAC2 GEF activity, Rap1B-BODIPY-GDP fluorescence; series mostly up to 154 µM
Results filed as inconclusive are left out. Calls of active or inactive are those of the source. The call rests on the fitted dose curve; in most records, active means well fitted activation curve with a large enough effect; inconclusive means small, poorly fitted or top-dose-only effect; inactive means no such curve, though single readings can be large or run the other way.
measured.parameter: activation

Below: 4 compounds and their reported activation.
CC(=O)NC(c1ccccc1)c1nc(-c2cccs2)cs1 (stereo unspecified) : inactive
COc1cccc(OC)c1C(=O)NC(=S)NNC(=O)[C@H]1C[C@@H]1c1ccccc1 : inactive
Cc1cc(-c2ccc(/C=N/n3cnnc3)o2)ccc1Cl : inactive
Cc1ccccc1C(=O)Nc1ccccc1N1CCCCC1 : inactive

Let us move to another entry and its activation.
Annotate the compound "CC(=O)/C(=N/Nc1ccccc1)Sc1nnc(CCc2ccccc2)n1-c1ccccc1" with its measured activation.
inactive
